tested on: mouse liver microsomes with NADPH, LC-MS/MS; assay: qHTS for Activators of Human alpha-Glucosidase as a Potential Chaperone Treatment of Pompe Disease: Metabolic Stability in presence of NADPH; settings: at 5 µM; hits give high values (more stable)
Reported percent remaining (higher = more stable) values for the following molecules.
The response must be a number in % with no trailing unit.

given_smiles=CCCN1CNc2c(c(=O)[nH]c(=S)n2CCc2ccc(OC)c(OC)c2)C1 result_type="percent remaining (higher = more stable)" endpoint_value=4

Could you share what percent remaining (higher = more stable) was measured for CCCN1CNc2c(c(=O)[nH]c(=S)n2CCc2cccc(Cl)c2Cl)C1 , tested on mouse liver microsomes with NADPH, LC-MS/MS?
2

Could you share what percent remaining (higher = more stable) was measured for CCCN1CNc2c(c(=O)[nH]c(=S)n2Cc2ccc(OC)c(OC)c2)C1 , tested on mouse liver microsomes with NADPH, LC-MS/MS?
63

Origin of values: PubChem BioAssay AID602239
